The measurements presented in this section are drawn from the SangsterLogP compilation.

Assignment: determine reported logP for the given compounds.
Reply with just the number.

Give the measured logP of CCCCCCS(=O)c1nnnn1-c1ccc([N+](=O)[O-])cc1 (stereo not given) .
3.5

Which logP is reported for this compound? `CN(C)c1ccc(-n2nnnc2S(C)(=O)=O)cc1`
2.7

What does the record list as logP for `CC(=O)Oc1ccc(-n2nnnc2S(C)(=O)=O)cc1` ?
1.6

Given the compound `Cc1ccc(-n2nnnc2S(C)(=O)=O)cc1` , what is its reported logP?
2.5

Name the reported logP value associated with the compound `CS(=O)(=O)c1nnnn1Cc1ccc([N+](=O)[O-])cc1`
2.1

----------
Assign logP to each entry below.
Returns: the value as a bare number; no unit string appended.

Which logP value is on record for `CCCS(=O)(=O)c1nnnn1-c1ccc([N+](=O)[O-])cc1` ?
2.7

Data request, read-out logP, for `CS(=O)(=O)c1nnnn1C1CCCCC1`
2.1

Which logP value belongs to CS(=O)c1nnnn1-c1ccc([N+](=O)[O-])cc1 (stereo unspecified) ?
1.4

Item `CCCCCCS(=O)(=O)c1nnnn1-c1ccc([N+](=O)[O-])cc1` has what recorded logP?
4.3

Consider the compound shown here: CCCCCCCCS(=O)c1nnnn1-c1ccc([N+](=O)[O-])cc1 (stereo unspecified) What is its recorded logP?
4.7

Recorded logP for `CS(=O)(=O)c1nnnn1-c1cccc(C(F)(F)F)c1` , please?
2.9
